Source: the supplement of paper PMC10065799

Target: EPHB1 (UniProt P54762)
Sequence (P54762 whole entry, looked up): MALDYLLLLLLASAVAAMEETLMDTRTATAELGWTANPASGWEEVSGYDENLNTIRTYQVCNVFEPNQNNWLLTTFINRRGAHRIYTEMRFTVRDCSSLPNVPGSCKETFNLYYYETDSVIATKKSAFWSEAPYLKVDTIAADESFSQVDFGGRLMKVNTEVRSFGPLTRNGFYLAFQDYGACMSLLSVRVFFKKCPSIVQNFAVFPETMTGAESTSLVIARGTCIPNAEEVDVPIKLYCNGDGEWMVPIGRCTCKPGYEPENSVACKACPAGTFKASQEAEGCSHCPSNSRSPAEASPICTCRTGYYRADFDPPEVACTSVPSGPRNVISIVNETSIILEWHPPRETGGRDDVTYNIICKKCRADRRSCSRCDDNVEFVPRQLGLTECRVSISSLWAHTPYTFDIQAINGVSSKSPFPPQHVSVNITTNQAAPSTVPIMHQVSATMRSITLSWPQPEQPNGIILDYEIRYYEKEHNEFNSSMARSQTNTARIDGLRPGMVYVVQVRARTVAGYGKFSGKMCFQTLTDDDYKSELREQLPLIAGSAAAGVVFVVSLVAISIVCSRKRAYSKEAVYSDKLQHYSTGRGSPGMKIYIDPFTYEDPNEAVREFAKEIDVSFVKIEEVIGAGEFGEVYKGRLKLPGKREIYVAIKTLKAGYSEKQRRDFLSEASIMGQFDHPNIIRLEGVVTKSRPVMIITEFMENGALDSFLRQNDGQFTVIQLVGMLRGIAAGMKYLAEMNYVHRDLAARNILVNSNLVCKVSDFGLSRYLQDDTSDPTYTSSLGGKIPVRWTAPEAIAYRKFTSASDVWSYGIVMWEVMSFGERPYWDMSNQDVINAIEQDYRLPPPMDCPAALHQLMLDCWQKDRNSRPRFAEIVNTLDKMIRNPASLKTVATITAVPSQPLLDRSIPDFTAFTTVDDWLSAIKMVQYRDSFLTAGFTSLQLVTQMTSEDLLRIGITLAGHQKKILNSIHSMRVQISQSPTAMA
Test: phosphorylation enrichment, bacterial display (enrichment ratio); higher = better substrate or ligand; peptides without Tyr show the background;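 note: 11-residue human phosphosite peptides and single-mutation variants displayed on the E. coli surface, counted by deep sequencing, each peptide's frequency after selection divided by its frequency in the unselected input library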;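 note: frequency after pTyr selection over input frequency; kinase dosed for 20-30% of maximal phosphorylation in three min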
We use 0.7 as the dividing line for phosphorylation enrichment: on or above the line is true, below is false.

Qu. Given the entry EEGNPYYSSAR [MCCC2_Y520] , answer whether its phosphorylation enrichment meets or surpasses 0.7.
Ans. false

Qu. Given the entry FGSLLYKFAFK [FANCD2_Y458_YF] , answer whether its phosphorylation enrichment meets or surpasses 0.7.
Ans. false

Qu. Given the entry IGEVVYQRAVM [GRIN2A_Y502] , answer whether its phosphorylation enrichment meets or surpasses 0.7.
Ans. true

Qu. Given the entry NGLVAYKDGKL [PMM2_Y76] , answer whether its phosphorylation enrichment meets or surpasses 0.7.
Ans. false

Qu. Given the entry GRTNICKNKKD [SLC26A3_Y520_Y520C] , answer whether its phosphorylation enrichment meets or surpasses 0.7.
Ans. false

Qu. Given the entry TYGVLYKARNK [CDK2_Y19_V18L] , answer whether its phosphorylation enrichment meets or surpasses 0.7.
Ans. false

Qu. Given the entry FADIAYNYRHG [PAH_Y166] , answer whether its phosphorylation enrichment meets or surpasses 0.7.
Ans. false

Qu. Given the entry GSERRYTREGG [PTPRN2_Y139_S140T] , answer whether its phosphorylation enrichment meets or surpasses 0.7.
Ans. false

Qu. Given the entry VAFVYYKSIGP [ADGRL4_Y302] , answer whether its phosphorylation enrichment meets or surpasses 0.7.
Ans. false

Qu. Given the entry LWKWRYEELKE [CCDC102B_Y299_K298R] , answer whether its phosphorylation enrichment meets or surpasses 0.7.
Ans. true

Qu. Given the entry SVTCTYFPALN [TP53_Y126_S127F] , answer whether its phosphorylation enrichment meets or surpasses 0.7.
Ans. true

Qu. Given the entry TAIFIYIRPKA [OR10C1_Y258_L255I] , answer whether its phosphorylation enrichment meets or surpasses 0.7.
Ans. false

Qu. Given the entry LARDMHDKEFF [MET_Y1230_Y1230H_YF] , answer whether its phosphorylation enrichment meets or surpasses 0.7.
Ans. true

Qu. Given the entry IIQRAYRRHLL [SCN1A_Y1926] , answer whether its phosphorylation enrichment meets or surpasses 0.7.
Ans. false

Qu. Given the entry LTFDEYRNNSQ [ANXA3_Y216_I219N] , answer whether its phosphorylation enrichment meets or surpasses 0.7.
Ans. false

Qu. Given the entry LWQSIYNLEAE [TNNT2_Y251] , answer whether its phosphorylation enrichment meets or surpasses 0.7.
Ans. true

Qu. Given the entry RAMRRYLEWGE [ERBB3_Y680_R683W] , answer whether its phosphorylation enrichment meets or surpasses 0.7.
Ans. false

Qu. Given the entry `LANNEYFFQVC` , answer whether its phosphorylation enrichment meets or surpasses 0.7.
Ans. true

Qu. Given the entry RFLRGYHQDAY [HLA-A_Y137_R138H] , answer whether its phosphorylation enrichment meets or surpasses 0.7.
Ans. true

Qu. Given the entry VPFARYLAMNK [HARS1_Y138] , answer whether its phosphorylation enrichment meets or surpasses 0.7.
Ans. false

Qu. Given the entry QKMADYSNKLH [PDPR_Y104_Y109H] , answer whether its phosphorylation enrichment meets or surpasses 0.7.
Ans. false

---

Biological target: Hck (UniProt P08631)
Sequence (P08631 whole entry, looked up): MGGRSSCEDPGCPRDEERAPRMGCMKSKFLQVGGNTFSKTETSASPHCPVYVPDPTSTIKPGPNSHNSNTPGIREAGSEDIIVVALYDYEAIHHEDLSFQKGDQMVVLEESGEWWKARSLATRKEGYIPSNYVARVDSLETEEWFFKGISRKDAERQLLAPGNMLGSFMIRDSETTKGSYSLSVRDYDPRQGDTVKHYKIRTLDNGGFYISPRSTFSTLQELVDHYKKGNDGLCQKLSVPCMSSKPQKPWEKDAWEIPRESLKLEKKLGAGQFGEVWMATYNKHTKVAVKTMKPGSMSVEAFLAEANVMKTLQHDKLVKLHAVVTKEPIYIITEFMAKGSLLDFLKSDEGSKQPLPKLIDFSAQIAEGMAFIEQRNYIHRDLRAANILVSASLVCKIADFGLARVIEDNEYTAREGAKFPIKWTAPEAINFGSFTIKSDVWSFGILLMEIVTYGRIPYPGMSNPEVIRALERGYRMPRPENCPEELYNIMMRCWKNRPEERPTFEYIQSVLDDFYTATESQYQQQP
Test: phosphorylation enrichment, bacterial display (enrichment ratio); higher = better substrate or ligand; peptides without Tyr show the background
We use 0.6 as the dividing line for phosphorylation enrichment: on or above the line is true, below is false.

Qu. Given the entry SVVVPNEPPEV [TP53_Y220_Y220N] , answer whether its phosphorylation enrichment meets or surpasses 0.6.
Ans. false

Qu. Given the entry IHETTHNSIMK [ACTA1_Y281_Y281H] , answer whether its phosphorylation enrichment meets or surpasses 0.6.
Ans. false

Qu. Given the entry VKKKLYEEIDQ [CYP17A1_Y329] , answer whether its phosphorylation enrichment meets or surpasses 0.6.
Ans. false

Qu. Given the entry AYRHGYFDEEM [PLEC_Y2971_R2969H] , answer whether its phosphorylation enrichment meets or surpasses 0.6.
Ans. true

Qu. Given the entry QTEAPYRFIFM [PTPN11_Y511_Q510P_YF] , answer whether its phosphorylation enrichment meets or surpasses 0.6.
Ans. true

Qu. Given the entry AHPIIYDIIEA [PYKtide_D_2014] , answer whether its phosphorylation enrichment meets or surpasses 0.6.
Ans. true

Qu. Given the entry RPYSPYIIRGM [LRP5_Y1531_R1529S] , answer whether its phosphorylation enrichment meets or surpasses 0.6.
Ans. true

Qu. Given the entry SFMVRYNQPRV [GRIN2D_Y736_YF] , answer whether its phosphorylation enrichment meets or surpasses 0.6.
Ans. false

Qu. Given the entry TGDFGYRAPGF [TNS2_Y668_YF] , answer whether its phosphorylation enrichment meets or surpasses 0.6.
Ans. false

Qu. Given the entry YGPPQYNIQYS [ERBB2IP_Y977] , answer whether its phosphorylation enrichment meets or surpasses 0.6.
Ans. true

Qu. Given the entry CGLPRYRWLTH [TSPAN12_Y143_Y138C] , answer whether its phosphorylation enrichment meets or surpasses 0.6.
Ans. false

Qu. Given the entry HRGFLYLAIEF [TEK_Y899_Y897F_YF] , answer whether its phosphorylation enrichment meets or surpasses 0.6.
Ans. true

Qu. Given the entry LFSGDCFRIQG [DDR2_Y740_Y740C_YF] , answer whether its phosphorylation enrichment meets or surpasses 0.6.
Ans. false

Qu. Given the entry EVKEAYMGNVL [ACAT1_Y90] , answer whether its phosphorylation enrichment meets or surpasses 0.6.
Ans. false

Qu. Given the entry LINPKYSVEEE [PCDH19_Y27_L25P] , answer whether its phosphorylation enrichment meets or surpasses 0.6.
Ans. false

Qu. Given the entry FTHSDYQFSQR [PKP2_Y166_YF] , answer whether its phosphorylation enrichment meets or surpasses 0.6.
Ans. false

Qu. Given the entry YAGRDYSLDEF [MYOF_Y1705_G1701A] , answer whether its phosphorylation enrichment meets or surpasses 0.6.
Ans. false

Qu. Given the entry ETCLAYREKRI [TEKT1_Y118] , answer whether its phosphorylation enrichment meets or surpasses 0.6.
Ans. false
